Target: human recombinant BACE2 (Homo sapiens (Human), UniProt Q9Y5Z0)
Sequence (Q9Y5Z0 63-518): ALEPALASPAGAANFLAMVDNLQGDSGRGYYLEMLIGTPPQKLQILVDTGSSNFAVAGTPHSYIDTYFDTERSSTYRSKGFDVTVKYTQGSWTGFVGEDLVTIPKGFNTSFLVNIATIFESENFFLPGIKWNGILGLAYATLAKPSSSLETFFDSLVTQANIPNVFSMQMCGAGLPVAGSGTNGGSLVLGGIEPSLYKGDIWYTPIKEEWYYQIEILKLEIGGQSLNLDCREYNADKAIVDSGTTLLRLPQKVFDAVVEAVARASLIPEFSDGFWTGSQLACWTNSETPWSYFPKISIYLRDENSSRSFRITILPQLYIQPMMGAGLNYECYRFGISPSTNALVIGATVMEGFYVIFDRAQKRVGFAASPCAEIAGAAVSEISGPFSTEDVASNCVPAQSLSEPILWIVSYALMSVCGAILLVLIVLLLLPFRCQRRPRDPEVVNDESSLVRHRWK
Assay: In vitro enzymatic BACE2 FRET assay
Settings: read-out: BACE2 Enzyme IC50
pIC50: −log10 of the molar value.
value_type: pIC50

The examples below pair each entry with its known result.
1) CN1C(N)=N[C@](C)(c2cc(/C=C(\F)c3ccc(Cl)cn3)ccc2F)CS1(=O)=O; 8.70
2) CN1C(N)=N[C@](C)(c2cc(/C=C(\F)c3cnc(OCC#CCO)cn3)ccc2F)CS1(=O)=O; 7.25
3) CN1C(N)=N[C@](C)(c2cc(/C=C(\F)c3ccc(F)cn3)ccc2F)CS1(=O)=O; 8.10
4) COC[C@H](C)Oc1cnc(/C(F)=C/c2ccc(F)c([C@@]3(C)N=C(N)[C@@]4(CF)CC[C@@H]3S4(=O)=O)c2)cn1; 6.98
5) CC1(C)C(N)=N[C@](C)(c2cc(/C=C(\F)c3ncc(C#N)cc3Cl)ccc2F)CS1(=O)=O; 7.92
6) CC#C[C@@H](C)Oc1cnc(/C(F)=C/c2ccc(F)c([C@]3(C)CS(=O)(=O)C(C)(C)C(N)=N3)c2)cn1 (single isomer, unassigned); 6.28

A = C#C[C@H](C)Oc1cnc(/C(F)=C/c2ccc(F)c([C@@]3(C)N=C(N)[C@@]4(CF)CC[C@@H]3S4(=O)=O)c2)cn1
B = Cc1cc(C#N)cnc1/C(F)=C/c1ccc(F)c([C@]2(C)CS(=O)(=O)C(C)(C)C(N)=N2)c1
Problem: Parameter check: reported pIC50 is higher for which label, A or B ? Record your answer as the label of the chosen record.
Solution: B
(B: 7.55, A: 6.83)

Where do the numbers come from? From patent US11021493B2.
